- subject.of.test: Recombinant GST-Tie2 (Homo sapiens)
- Sequence (Q02763 23-1124): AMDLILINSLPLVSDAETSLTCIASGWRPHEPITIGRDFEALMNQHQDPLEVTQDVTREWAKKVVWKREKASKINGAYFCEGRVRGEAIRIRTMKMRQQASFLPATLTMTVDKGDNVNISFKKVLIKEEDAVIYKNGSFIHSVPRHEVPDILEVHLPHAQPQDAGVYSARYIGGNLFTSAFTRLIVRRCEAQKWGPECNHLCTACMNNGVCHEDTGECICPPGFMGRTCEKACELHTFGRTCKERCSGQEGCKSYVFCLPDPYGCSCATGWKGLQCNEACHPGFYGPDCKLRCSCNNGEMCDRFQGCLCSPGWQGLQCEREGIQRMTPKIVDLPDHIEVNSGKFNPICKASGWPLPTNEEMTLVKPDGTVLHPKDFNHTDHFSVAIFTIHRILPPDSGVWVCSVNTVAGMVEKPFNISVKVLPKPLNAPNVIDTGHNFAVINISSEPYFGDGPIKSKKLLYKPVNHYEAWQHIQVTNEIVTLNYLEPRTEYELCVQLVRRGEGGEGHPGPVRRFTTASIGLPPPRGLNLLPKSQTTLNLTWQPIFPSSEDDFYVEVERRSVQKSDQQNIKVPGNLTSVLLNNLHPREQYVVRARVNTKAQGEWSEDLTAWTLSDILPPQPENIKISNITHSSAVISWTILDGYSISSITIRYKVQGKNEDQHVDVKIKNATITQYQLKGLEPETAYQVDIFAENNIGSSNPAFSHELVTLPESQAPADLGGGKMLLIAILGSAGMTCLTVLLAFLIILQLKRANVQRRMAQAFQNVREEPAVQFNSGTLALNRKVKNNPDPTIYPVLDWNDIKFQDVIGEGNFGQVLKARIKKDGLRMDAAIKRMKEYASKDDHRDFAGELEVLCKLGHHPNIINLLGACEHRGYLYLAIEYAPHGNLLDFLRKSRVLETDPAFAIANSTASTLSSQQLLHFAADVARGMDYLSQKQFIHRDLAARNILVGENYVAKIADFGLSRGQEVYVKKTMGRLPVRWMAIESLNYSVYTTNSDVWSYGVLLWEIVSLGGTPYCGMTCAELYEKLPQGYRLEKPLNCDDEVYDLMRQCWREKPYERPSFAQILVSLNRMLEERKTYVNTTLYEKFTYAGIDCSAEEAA
- test.protocol: Tie2 fluorescence polarization kinase activity assay (TIE2-FP)
- Format: biochemical
- experimental.conditions: 200 μM ATP, activated enzyme; read-out: TIE2-FP pIC50 (converted)
- Procedure: Tie2 Fluorescence Polarization Kinase Activity Assay (TIE2-FP) Activation of Recombinant Tie2 Activation: Recombinant GST-Tie2 is activated by incubating the enzyme in 20 mM Tris-HCl, pH7.5, 12 mM MgCl2, 100 mM NaCl, 20 μM sodium vanidate, 1 mM DTT and 300 μM ATP at room temperature for 2 hours. […] IC50's of compounds are measured under subsaturating ATP (200 μM) and varing concentrations of activated Tie2 and peptide substrate (RFWKYEFWR-OH; MW 1873 Da, TFA salt). […]
# maps each entry to its IC50

item_smiles=Cn1nc(-c2ccc(NC(=O)Nc3cccc(C(F)(F)F)c3)cc2)c(C(N)=O)c1N measured_quantity=IC50 value_reported="< 100 nM"
item_smiles=Cc1cccc(NC(=O)Nc2ccc(-c3nn(C)c(N)c3C(N)=O)cc2)c1 measured_quantity=IC50 value_reported="100 to 1000 nM"

Record request: IC50 value, item `CC(C)(C)n1nc(-c2ccc(NC(=O)Nc3cccc4ccccc34)cc2)c(C(N)=O)c1N`
100 to 1000 nM

Likewise for `Cn1nc(-c2ccc(NC(=O)Nc3ccc4ccccc4c3)cc2)c(C(N)=O)c1N` ?
100 to 1000 nM

Likewise for `Cn1nc(-c2ccc(NC(=O)Nc3cc(Cl)ccc3Cl)cc2)c(C(N)=O)c1N` ?
< 100 nM

Likewise for `CC(C)(C)n1nc(-c2ccc(NC(=O)Nc3cc(F)ccc3F)cc2)c(C(N)=O)c1N` ?
100 to 1000 nM

###

- subject.of.test: Recombinant GST-Tie2 (Homo sapiens)
- test.protocol: Tie2 fluorescence polarization kinase activity assay (TIE2-FP)
- Format: biochemical
- experimental.conditions: 200 μM ATP, activated enzyme; read-out: TIE2-FP pIC50 (converted)
measured.quantity: IC50

Here are 3 compounds together with their reported answers.
item_smiles=COc1ccc(NC(=O)Nc2ccc(-c3nn(C(C)(C)C)c(N)c3C(N)=O)cc2)c(OC)c1 measured_quantity=IC50 value_reported="1000 to 10000 nM"
item_smiles=Cn1nc(-c2ccc(NC(=O)Nc3cc(F)ccc3F)cc2)c(C(N)=O)c1N measured_quantity=IC50 value_reported="1000 to 10000 nM"
item_smiles=CC(C)(C)n1nc(-c2ccc(NC(=O)Nc3ccc(Oc4ccccc4)cc3)cc2)c(C(N)=O)c1N measured_quantity=IC50 value_reported="100 to 1000 nM"

Next, consider the following compound.
Record request: IC50 value, item `Cc1cccc(NC(=O)Nc2ccc(-c3nn(C(C)(C)C)c(N)c3C(N)=O)cc2)c1`
< 100 nM

###

- subject.of.test: Recombinant GST-Tie2 (Homo sapiens)
- test.protocol: Tie2 fluorescence polarization kinase activity assay (TIE2-FP)
- Assay type: biochemical
- experimental.conditions: 200 μM ATP, activated enzyme; read-out: TIE2-FP pIC50 (converted)
measured.quantity: IC50

Observed IC50 on Recombinant GST-Tie2 (Homo sapiens) for `Cc1ccccc1NC(=O)Nc1ccc(-c2nn(C)c(N)c2C(N)=O)cc1` , please.
1000 to 10000 nM

Likewise for `Cn1nc(-c2ccc(NC(=O)Nc3cccc4ccccc34)cc2)c(C(N)=O)c1N` ?
1000 to 10000 nM

Likewise for `COc1ccc(NC(=O)Nc2ccc(-c3nn(C)c(N)c3C(N)=O)cc2)c(OC)c1` ?
1000 to 10000 nM

Likewise for `Cn1nc(-c2ccc(NC(=O)Nc3c(F)cccc3F)cc2)c(C(N)=O)c1N` ?
> 10000 nM

Likewise for `CC(C)(C)n1nc(-c2ccc(NC(=O)Nc3cc(Cl)ccc3Cl)cc2)c(C(N)=O)c1N` ?
100 to 1000 nM

Likewise for `CC(C)(C)n1nc(-c2ccc(NC(=O)Nc3cc(C(F)(F)F)ccc3Cl)cc2)c(C(N)=O)c1N` ?
< 100 nM

Likewise for `CC(C)(C)n1nc(-c2ccc(NC(=O)Nc3ccc4c(c3)OCO4)cc2)c(C(N)=O)c1N` ?
100 to 1000 nM

Likewise for `CC(C)(C)n1nc(-c2ccc(NC(=O)Nc3cc(C(F)(F)F)ccc3F)cc2)c(C(N)=O)c1N` ?
< 100 nM

Likewise for `Cn1nc(-c2ccc(NC(=O)Nc3ccc(-c4ccccc4)cc3)cc2)c(C(N)=O)c1N` ?
100 to 1000 nM

Likewise for `CC(C)(C)n1nc(-c2ccc(NC(=O)Nc3cccc(C(F)(F)F)c3)cc2)c(C(N)=O)c1N` ?
< 100 nM

Likewise for `Cn1nc(-c2ccc(NC(=O)Nc3cc(C(F)(F)F)cc(C(F)(F)F)c3)cc2)c(C(N)=O)c1N` ?
100 to 1000 nM

Likewise for `Cn1nc(-c2ccc(NC(=O)Nc3cc(C(F)(F)F)ccc3F)cc2)c(C(N)=O)c1N` ?
< 100 nM

Likewise for `CC(C)(C)n1nc(-c2ccc(NC(=O)Nc3ccc4ccccc4c3)cc2)c(C(N)=O)c1N` ?
< 100 nM
